experiment: Lactate dehydrogenase (LDH) release assay; assay type: cell-based; conditions: 0% FBS 4Hr; read-out: LDH: Cytotoxicity assay: EC50
pEC50: −log10 of the molar value. Positions of bridges follow the written chain, without caps; N, C: chain ends. Non-standard residues stand in square brackets, D forms with d. Residues, ends and D or L forms follow the SMILES beside them. Lys(N3) = [N-]=[N+]=NCCCC[C@H](N)C(=O)O; R8 = C=CCCCCCC[C@@](C)(N)C(=O)O; Cba = N[C@@H](CC1CCC1)C(=O)O; S5 = C=CCCC[C@](C)(N)C(=O)O; βAla = NCCC(=O)O
metric name: pEC50

[
  {
    "compound": "CC(=O)N[C@@H](CCCCN=[N+]=[N-])C(=O)NCCC(=O)N[C@H]1CCCCNC(=O)CC[C@@H]2NC(=O)[C@@](C)(CCCCCCC=CCCC[C@@](C)(C(=O)N[C@@H](CO)C(=O)N[C@@H](C)C(=O)N[C@@H](C)C(N)=O)NC(=O)[C@H](CC3CCC3)NC(=O)[C@H](CCC(N)=O)NC(=O)[C@H](C)NC(=O)[C@H](Cc3c[nH]c4ccccc34)NC(=O)[C@H](Cc3ccc(O)cc3)NC2=O)NC(=O)[C@H](Cc2ccccc2)NC(=O)[C@H]([C@@H](C)O)NC1=O",
    "metric name": "pEC50",
    "result": "< 4.29"
  },
  {
    "compound": "CC(=O)N[C@@H](CCCCN=[N+]=[N-])C(=O)NCCC(=O)N[C@@H](CC(C)C)C(=O)N[C@H](C(=O)N[C@@H](C)C(=O)N[C@]1(C)CCCCCCC=CCCC[C@@](C)(C(=O)N[C@@H](CO)C(=O)N[C@@H](C)C(=O)N[C@@H](C)C(N)=O)NC(=O)[C@H](CC2CCC2)NC(=O)[C@H](CCC(N)=O)NC(=O)[C@H](C)NC(=O)[C@H](Cc2c[nH]c3ccccc23)NC(=O)[C@H](Cc2ccc(O)cc2)NC(=O)[C@H](CCC(=O)O)NC1=O)[C@@H](C)O [MP-892, AZIDE-ATSP-7041 (F3A)]",
    "metric name": "pEC50",
    "result": "< 4.30"
  },
  {
    "compound": "CC(=O)N[C@@H](CCCCN=[N+]=[N-])C(=O)NCCC(=O)N[C@@H](CC(C)C)C(=O)N[C@H](C(=O)N[C@@H](Cc1ccccc1)C(=O)N[C@]1(C)CCCCCCC=CCCC[C@@](C)(C(=O)NCC(=O)NCC(=O)NCC(=O)NCC(=O)NCC(=O)NCC(N)=O)NC(=O)[C@H](CC2CCC2)NC(=O)[C@H](CCC(N)=O)NC(=O)[C@H](C)NC(=O)[C@H](Cc2c[nH]c3ccccc23)NC(=O)[C@H](Cc2ccc(O)cc2)NC(=O)[C@H](CCC(=O)O)NC1=O)[C@@H](C)O [MP-289] (Ac-[Lys(N3)][βAla]LTF[R8]EYWAQ[Cba][S5]GGGGGG-NH2; staple 6-13)",
    "metric name": "pEC50",
    "result": "< 4.29"
  },
  {
    "compound": "CC(=O)N[C@@H](CCCCN=[N+]=[N-])C(=O)NCCC(=O)N[C@@H](CC(C)C)C(=O)N[C@H](C(=O)N[C@@H](Cc1ccccc1)C(=O)N[C@]1(C)CCCCCCC=CCCC[C@@](C)(C(=O)N[C@@H](CO)C(=O)N[C@@H](C)C(=O)N[C@@H](C)C(N)=O)NC(=O)[C@H](CC2CCC2)NC(=O)[C@H](CCC(N)=O)NC(=O)[C@H](Cc2c[nH]cn2)NC(=O)[C@H](Cc2c[nH]c3ccccc23)NC(=O)[C@H](Cc2ccc(O)cc2)NC(=O)[C@H](CCC(=O)O)NC1=O)[C@@H](C)O [MP-496, AZIDE-ATSP-7041 (A8H)]",
    "metric name": "pEC50",
    "result": "< 4.30"
  }
]

---

test system: HCT116 cells; experiment: Lactate dehydrogenase (LDH) release assay; format: cell-based; settings: 0% FBS 4Hr
Positions of bridges follow the written chain, without caps; N, C: chain ends. Non-standard residues stand in square brackets, D forms with d. Residues, ends and D or L forms follow the SMILES beside them. dPhe(4-CF3) = N[C@H](Cc1ccc(C(F)(F)F)cc1)C(=O)O; dTrp(6-F) = N[C@H](Cc1c[nH]c2cc(F)ccc12)C(=O)O; R8 = C=CCCCCCC[C@@](C)(N)C(=O)O; Cba = N[C@@H](CC1CCC1)C(=O)O; R5 = C=CCCC[C@@](C)(N)C(=O)O; S5 = C=CCCC[C@](C)(N)C(=O)O
metric name: LDH: Cytotoxicity assay % Effect

[
  {
    "compound": "CC(=O)N[C@@H](C(=O)N[C@H](C)C(=O)N[C@H](Cc1c[nH]c2cc(F)ccc12)C(=O)N[C@H](Cc1ccc(O)cc1)C(=O)N[C@H](C)C(=O)N[C@]1(C)CCCC=CCCC[C@](C)(C(=O)N[C@H](CC(C)C)C(=O)N[C@H](CO)C(N)=O)NC(=O)[C@@H](CCC(N)=O)NC(=O)[C@@H](CCC(=O)O)NC(=O)[C@@H](Cc2ccc(C(F)(F)F)cc2)NC1=O)[C@H](C)O [MP-797] (Ac-[dT][dA][dTrp(6-F)][dY][dA][R5][dPhe(4-CF3)][dE][dQ][R5][dL][dS]-NH2; staple 6-10)",
    "metric name": "LDH: Cytotoxicity assay % Effect",
    "result": "33.6%"
  },
  {
    "compound": "CC(=O)N[C@@H](CCCCN=[N+]=[N-])C(=O)NCCC(=O)N[C@@H](CC(C)C)C(=O)N[C@H](C(=O)N[C@@H](Cc1ccccc1)C(=O)N[C@]1(C)CCCCCCC=CCCC[C@@](C)(C(=O)N[C@@H](CO)C(=O)N[C@@H](C)C(=O)N[C@@H](C)C(N)=O)NC(=O)[C@H](CC2CCC2)NC(=O)[C@H](CCC(N)=O)NC(=O)[C@H](CCCCN)NC(=O)[C@H](Cc2c[nH]c3ccccc23)NC(=O)[C@H](Cc2ccc(O)cc2)NC(=O)[C@H](CCC(=O)O)NC1=O)[C@@H](C)O [MP-549, AZIDE-ATSP-7041 (A8K)]",
    "metric name": "LDH: Cytotoxicity assay % Effect",
    "result": "7.105%"
  },
  {
    "compound": "CC(=O)N[C@@H](CC(C)C)C(=O)N[C@@H](Cc1c[nH]cn1)C(=O)N[C@@H](Cc1ccccc1)C(=O)N[C@]1(C)CCCCCCC=CCCC[C@@](C)(C(=O)N[C@@H](CO)C(=O)N[C@@H](C)C(=O)N[C@@H](C)C(N)=O)NC(=O)[C@H](CC2CCC2)NC(=O)[C@H](CC(C)C)NC(=O)[C@H](CCC(N)=O)NC(=O)[C@H](Cc2c[nH]c3ccccc23)NC(=O)[C@H](Cc2ccc(O)cc2)NC(=O)[C@H](CCC(=O)O)NC1=O [MP-198, ATSP-7041 (T2H)] (Ac-LHF[R8]EYWQL[Cba][S5]SAA-NH2; staple 4-11)",
    "metric name": "LDH: Cytotoxicity assay % Effect",
    "result": "2.825%"
  }
]

---

system: HCT116 cells; assay: Lactate dehydrogenase (LDH) release assay; assay type: cell-based; conditions: 0% FBS 16Hr
metric name: LDH: Cytotoxicity assay % Effect

[
  {
    "compound": "CC(=O)N[C@@H](CCCCN=[N+]=[N-])C(=O)NCCC(=O)N[C@@H](CC(C)C)C(=O)N[C@H](C(=O)N[C@@H](Cc1ccccc1)C(=O)N[C@]1(C)CCCCCCC=CCCC[C@@](C)(C(=O)N[C@@H](CO)C(=O)N[C@@H](C)C(=O)N[C@@H](C)C(N)=O)NC(=O)[C@H](CC2CCC2)NC(=O)[C@H](Cc2c[nH]cn2)NC(=O)[C@H](C)NC(=O)[C@H](Cc2c[nH]c3ccccc23)NC(=O)[C@H](Cc2ccc(O)cc2)NC(=O)[C@H](CCC(=O)O)NC1=O)[C@@H](C)O [MP-176, AZIDE-ATSP-7041 (Q9H)]",
    "result": "4.02%"
  },
  {
    "compound": "CC(=O)N[C@@H](CCCCN=[N+]=[N-])C(=O)NCCC(=O)N[C@@H](CC(C)C)C(=O)N[C@@H](CCCCN)C(=O)N[C@@H](Cc1ccccc1)C(=O)N[C@]1(C)CCCCCCC=CCCC[C@@](C)(C(=O)N[C@@H](CO)C(=O)N[C@@H](C)C(=O)N[C@@H](C)C(N)=O)NC(=O)[C@H](CC2CCC2)NC(=O)[C@H](CCC(N)=O)NC(=O)[C@H](C)NC(=O)[C@H](Cc2c[nH]c3ccccc23)NC(=O)[C@H](Cc2ccc(O)cc2)NC(=O)[C@H](CCC(=O)O)NC1=O [MP-547, AZIDE-ATSP-7041 (T2K)]",
    "result": "15.73%"
  },
  {
    "compound": "CC(=O)N[C@@H](CCCCN=[N+]=[N-])C(=O)NCCC(=O)N[C@@H](CC(C)C)C(=O)N[C@H](C(=O)N[C@@H](Cc1ccccc1)C(=O)N[C@]1(C)CCCCCCC=CCCC[C@@](C)(C(=O)N[C@@H](CO)C(=O)N[C@@H](C)C(=O)N[C@@H](C)C(N)=O)NC(=O)[C@H](CC2CCC2)NC(=O)[C@H](CCC(N)=O)NC(=O)[C@H](C)NC(=O)[C@H](Cc2c[nH]c3ccccc23)NC(=O)[C@H](Cc2ccc(O)cc2)NC(=O)[C@H](CCCCN)NC1=O)[C@@H](C)O [MP-548, AZIDE-ATSP-7041 (E5K)]",
    "result": "14.03%"
  }
]

Cited source for all entries: paper PMC10786919
